Ref: ChEMBL document CHEMBL2413051

Test system: Staphylococcus aureus
procedureDetails: Bactericidal activity against methicillin-sensitive Staphylococcus aureus 8325-4
Format: functional

givenSmiles	unitsLabel	MBC
C[n+]1cc(-c2ccc(C(C)(C)C)cc2)nc2ccccc21.[I-]	µg/mL	8
CC[C@H]1OC(=O)[C@H](C)[C@@H](O[C@H]2C[C@@](C)(OC)[C@@H](O)[C@H](C)O2)[C@H](C)[C@@H](O[C@@H]2O[C@H](C)C[C@H](N(C)C)[C@H]2O)[C@](C)(O)C[C@@H](C)C(=O)[C@H](C)[C@@H](O)[C@]1(C)O	µg/mL	32
C[n+]1cc(-c2cccc(C(C)(C)C)c2)nc2ccccc21.[I-]	µg/mL	16
CN[C@H](CC(C)C)C(=O)N[C@H]1C(=O)N[C@@H](CC(N)=O)C(=O)N[C@H]2C(=O)N[C@H]3C(=O)N[C@H](C(=O)N[C@H](C(=O)O)c4cc(O)cc(O)c4-c4cc3ccc4O)[C@H](O)c3ccc(c(Cl)c3)Oc3cc2cc(c3O[C@@H]2O[C@H](CO)[C@@H](O)[C@H](O)[C@H]2O[C@H]2C[C@](C)(N)[C@H](O)[C@H](C)O2)Oc2ccc(cc2Cl)[C@H]1O	µg/mL	1
CC(C)(C)c1ccc(-c2cnc3c(CNC(=N)N)cccc3n2)cc1	µg/mL	4
